target: S1-Fc (SARS-CoV-2, UniProt P0DTC2 16-685); assay: phage ELISA
Recorded endpoint: ELISA fold over background
Answer as a quantity: numeral, then unit.

Worked set:
{"Binder": "1-23 (antibody, V domains shown, also called variant 1-23) VH: EVQLLESGGGLVQPGGSLRLSCAASGFTFSSYAISWVRQAPGKGLEWVSIISGSGGSTYYADSVKGRFTISRDNSKNTLYLQMNSLRAEDTAVYYCAREGYRDYLWYFDLWGQGTLVTVSS VL: QSALTQPASVSGSPGQSITISCTGTSNDVGSYNLVSWYQQHPGKAPKLMIYEGNKRPSGVSNRFSGSKSGNTASLTISGLQAEDEADYYCCSYAGSYTVFGGGTKLTVL", "Result": "1.6 fold over background"}
{"Binder": "1-32 (antibody, V domains shown, also called variant 1-32) VH: EVQLLESGGGLVQPGGSLRLSCAASGFTFSSYAMYWVRQAPGKGLEWVSAISGSGGSTFYADSVKGRFTISRDNSKNTLYLQMNSLRAEDTAVYYCTRPPYGDYGDYWGQGTLVTVSS VL: QSALTQPASVSGSPGQSITISCTGTSSDVGGYNLVSWYQQHPGKAPKLMIYEGNKRPSGVSNRFSGSKSGNTASLTISGLQAEDEADYYCCSYAGSSTFPVVFGGGTKLTVL", "Result": "4 fold over background"}

Shifting focus to the binder that follows.
The recorded ELISA fold over background for entry 1-28 (antibody, V domains shown, also called variant 1-28) VH: EVQLLESGGGLVQPGGSLRLSCAASGFTFSSYGMSWVRQAPGKGLEWVSAISGSGGGTYYADSVKGRFTISRDNSKNTLYLQMNSLRAEDTAVYYCASSSSWQFDYWGQGTLVTVSS VL: QSALTQPASVSGSPGQSITISCTGTSSGVGSYNLVSWYQQHPGKAPKLMIYEGSQRPSGVSNRFSGSKSGNTASLTISGLQAEDEADYYCCSYAGSSTHYVFGGGTKLTVL equals 1.1 fold over background
